Origin of measurements: ChEMBL document CHEMBL4609983

Non-standard residues stand in square brackets, D forms with d. Residues, ends and D or L forms follow the SMILES beside them. *: point of attachment. X1 = O=C(O)c1cc(NC(=S)*)ccc1-c1c2ccc(=O)cc-2oc2cc(O)ccc12; Lys(Me3) = C[N+](C)(C)CCCC[C@H](N)C(=O)O; Benzoyl(4-Br) = O=C(c1ccc(Br)cc1)*; Abu = CC[C@H](N)C(=O)O; βAla = NCCC(=O)O
Quick note: these are Kd numbers for system: UniProt Q14781
Sequence (Q14781 whole entry): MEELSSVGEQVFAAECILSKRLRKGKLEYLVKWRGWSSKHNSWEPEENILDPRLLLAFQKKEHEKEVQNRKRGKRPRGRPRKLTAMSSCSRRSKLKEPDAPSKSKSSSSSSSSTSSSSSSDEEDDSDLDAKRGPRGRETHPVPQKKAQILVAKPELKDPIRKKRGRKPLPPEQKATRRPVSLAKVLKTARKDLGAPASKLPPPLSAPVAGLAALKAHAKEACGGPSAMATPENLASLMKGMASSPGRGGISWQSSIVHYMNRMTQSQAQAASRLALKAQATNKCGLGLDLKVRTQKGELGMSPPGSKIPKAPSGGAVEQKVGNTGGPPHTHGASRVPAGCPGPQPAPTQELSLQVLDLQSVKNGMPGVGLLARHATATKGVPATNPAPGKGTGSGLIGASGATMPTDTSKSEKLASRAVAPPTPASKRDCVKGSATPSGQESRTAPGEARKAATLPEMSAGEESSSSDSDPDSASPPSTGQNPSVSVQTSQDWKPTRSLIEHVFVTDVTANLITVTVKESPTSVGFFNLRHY
Write the number in nM without appending the unit.

Give Kd (UniProt Q14781) of the following compound: CC(=O)N[C@@H](Cc1ccccc1)C(=O)N[C@@H](Cc1ccccc1)C(=O)N[C@@H](C)C(=O)N[C@@H](CC(C)C)C(=O)N[C@@H](CCCC[N+](C)(C)C)C(=O)N[C@@H](CO)C(=O)N[C@@H](CCC(=O)O)C(=O)N[C@@H](CCCCNC(=S)Nc1ccc(-c2c3ccc(=O)cc-3oc3cc(O)ccc23)c(C(=O)O)c1)C(N)=O (Ac-FFAL[Lys(Me3)]SEK(X1)-NH2) 18000

Give Kd (UniProt Q14781) of the following compound: CC(C)C[C@H](NC(=O)[C@H](C)NC(=O)[C@H](Cc1ccccc1)NC(=O)CCNC(=S)Nc1ccc(-c2c3ccc(=O)cc-3oc3cc(O)ccc23)c(C(=O)O)c1)C(=O)N[C@@H](CCCC[N+](C)(C)C)C(=O)N[C@@H](CO)C(N)=O ({X1-βAla}-FAL[Lys(Me3)]S-NH2) 1100

Give Kd (UniProt Q14781) of the following compound: CC[C@H](NC(=O)[C@H](Cc1ccccc1)NC(=O)c1ccc(Br)cc1)C(=O)N[C@@H](Cc1ccccc1)C(=O)N[C@@H](CCCC[N+](C)(C)C)C(=O)N[C@@H](CO)C(=O)N[C@@H](CCC(=O)O)C(=O)N[C@@H](CCCCNC(=S)Nc1ccc(-c2c3ccc(=O)cc-3oc3cc(O)ccc23)c(C(=O)O)c1)C(N)=O ({Benzoyl(4-Br)}-F[Abu]F[Lys(Me3)]SEK(X1)-NH2) 1500
